Molecular target: Glucocorticoid receptor (Homo sapiens) (UniProt P04150)
Experiment: Transactivation activity at glucocorticoid receptor ligand binding domain (unknown origin) expressed in human Hela cells co-expressing GAL4 DNA binding domain assessed as NP-1-stimulated GRE activation by luciferase reporter gene assay relative to dexamethasone
Format: cell-based
Decision: Efficacy compared against 90%; not below it gives t, below it gives f.

Recorded results for 6 compounds are shown here.
>>> print(df.to_string())
                                   compound  label_value
0  CCS(=O)(=O)NCC(C)[C@@H](c1ccccc1)c1ccc2c(cnn2-c2ccc(F)cc2)c1 (stereo partly drawn)            t
1  CC(CNS(=O)(=O)CC(F)(F)F)[C@@H](c1ccccc1)c1ccc2c(cnn2-c2ccc(F)cc2)c1 (stereo partly drawn)            t
2  CC(C)C[C@@H](c1ccc2c(cnn2-c2ccc(F)cc2)c1)C(C)(C)CNC(=O)NC(C)(C)C            f
3  CC(C)(CNS(=O)(=O)CC(F)(F)F)[C@@H](c1ccccc1)c1ccc2c(cnn2-c2ccc(F)cc2)c1            f
4  CC(CNC(=O)CC(F)(F)F)[C@@H](c1ccccc1)c1ccc2c(cnn2-c2ccc(F)cc2)c1 (single isomer, unassigned)            f
5  CC(C)(CNC(=O)Cc1ccccc1)[C@@H](c1ccccc1)c1ccc2c(cnn2-c2ccc(F)cc2)c1            t

Q) Hi, just wondering whether `CC(C)(CNC(=O)CC(F)(F)F)[C@@H](c1ccccc1)c1ccc2c(cnn2-c2ccc(F)cc2)c1` shows Efficacy of 90% or higher.
A) f

Q) Hi, just wondering whether CC(CNC(=O)CC(F)(F)F)[C@@H](c1ccccc1)c1ccc2c(cnn2-c2ccc(F)cc2)c1 (stereo in doubt; 3i) shows Efficacy of 90% or higher.
A) t

----------
Field: pEC50. Provide a value for each of the molecules that follow.
Target: Glucocorticoid receptor (Homo sapiens, UniProt P04150)
Assay: Transrepression activity at glucocorticoid receptor in human A549 cells assessed as inhibition of IL1beta-stimulated NFkappaB-dependent E-selectin transcription by luciferase reporter gene assay
Type: cell-based
Give bare numbers, as −log10 of the molar value.

                                   molecule  reported_measurement
0  CC(C)(C)CC(=O)NCC(C)(C)[C@@H](c1ccccc1)c1ccc2c(cnn2-c2ccc(F)cc2)c1                  6.86
1  CCS(=O)(=O)NCC(C)(C)[C@@H](c1ccccc1)c1ccc2c(cnn2-c2ccc(F)cc2)c1                  7.81
2  CC(C)(CNS(=O)(=O)C1CC1)[C@@H](c1ccccc1)c1ccc2c(cnn2-c2ccc(F)cc2)c1                  7.53
3  CC(C)(CNS(=O)(=O)CC(F)(F)F)[C@@H](c1ccccc1)c1ccc2c(cnn2-c2ccc(F)cc2)c1                  8.12
4  CC(C)(C)C(=O)NCC(C)(C)[C@@H](c1ccccc1)c1ccc2c(cnn2-c2ccc(F)cc2)c1                  7.64
5  CC(C)C[C@@H](c1ccc2c(cnn2-c2ccc(F)cc2)c1)C(C)(C)CNC(=O)NC(C)(C)C                  7.95
6  CC(C)(CNS(C)(=O)=O)[C@@H](c1ccccc1)c1ccc2c(cnn2-c2ccc(F)cc2)c1                  7.72
7  CC(CNS(=O)(=O)CC(F)(F)F)[C@@H](c1ccccc1)c1ccc2c(cnn2-c2ccc(F)cc2)c1 (stereo not given in full)                  9.18

Okay, here is my list. What is pEC50 for each of these?
1. CC(C)C[C@@H](c1ccc2c(cnn2-c2ccc(F)cc2)c1)C(C)(C)CNC(=O)NCC(F)(F)F
2. CCS(=O)(=O)NCC(C)[C@@H](c1ccccc1)c1ccc2c(cnn2-c2ccc(F)cc2)c1 (stereo not given in full)

A)
7.06
8.74

----------
Field: Efficacy. Provide a value for each of the compounds that follow.
Target: Glucocorticoid receptor (Homo sapiens) (UniProt P04150)
Experiment: Transrepression activity at glucocorticoid receptor in human A549 cells assessed as inhibition of PMA-stimulated AP1 response element by luciferase reporter gene assay relative to dexamethasone
Assay type: cell-based
Numbers only, in %.

Recorded results for 3 compounds are shown here.
In [3]: df
Out[3]:
                                   compound                         target_under_test  reported_measurement
0  CC(CNC(=O)CC(F)(F)F)[C@@H](c1ccccc1)c1ccc2c(cnn2-c2ccc(F)cc2)c1 (stereo in doubt; 3i)  Glucocorticoid receptor (Homo sapiens) (UniProt P04150)                    88
1  CCS(=O)(=O)NCC(C)(C)[C@@H](c1ccccc1)c1ccc2c(cnn2-c2ccc(F)cc2)c1  Glucocorticoid receptor (Homo sapiens) (UniProt P04150)                    84
2  CC(C)(CNC(=O)C(F)(F)F)[C@@H](c1ccccc1)c1ccc2c(cnn2-c2ccc(F)cc2)c1  Glucocorticoid receptor (Homo sapiens) (UniProt P04150)                    44

Q) // fetch Glucocorticoid receptor (Homo sapiens) (UniProt P04150) Efficacy for CC(CNS(=O)(=O)CC(F)(F)F)[C@@H](c1ccccc1)c1ccc2c(cnn2-c2ccc(F)cc2)c1 (some centres undefined)
A) 97

----------
Target: Glucocorticoid receptor (Homo sapiens) (UniProt P04150)
Sequence (whole entry): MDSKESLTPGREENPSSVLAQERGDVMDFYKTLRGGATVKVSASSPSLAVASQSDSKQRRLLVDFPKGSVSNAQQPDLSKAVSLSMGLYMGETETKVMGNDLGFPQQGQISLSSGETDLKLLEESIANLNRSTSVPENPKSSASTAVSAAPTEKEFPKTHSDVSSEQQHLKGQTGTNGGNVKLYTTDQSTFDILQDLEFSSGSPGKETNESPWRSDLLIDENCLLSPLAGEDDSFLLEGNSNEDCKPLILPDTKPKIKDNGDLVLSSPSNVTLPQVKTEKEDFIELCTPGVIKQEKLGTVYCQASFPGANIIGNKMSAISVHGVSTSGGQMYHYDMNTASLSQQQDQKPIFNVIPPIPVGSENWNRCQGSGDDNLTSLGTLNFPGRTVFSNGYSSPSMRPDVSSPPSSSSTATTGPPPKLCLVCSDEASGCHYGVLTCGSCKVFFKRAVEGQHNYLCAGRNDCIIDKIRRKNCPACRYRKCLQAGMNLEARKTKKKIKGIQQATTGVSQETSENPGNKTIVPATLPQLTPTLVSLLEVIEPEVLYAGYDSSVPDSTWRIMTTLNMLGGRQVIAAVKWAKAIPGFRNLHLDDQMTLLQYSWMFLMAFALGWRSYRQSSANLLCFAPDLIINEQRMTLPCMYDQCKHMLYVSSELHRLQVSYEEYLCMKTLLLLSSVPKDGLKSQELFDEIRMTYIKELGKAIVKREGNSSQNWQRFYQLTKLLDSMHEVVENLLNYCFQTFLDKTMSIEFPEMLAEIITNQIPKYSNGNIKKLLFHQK
Assay: Transrepression activity at glucocorticoid receptor in human A549 cells assessed as inhibition of PMA-stimulated AP1 response element by luciferase reporter gene assay relative to dexamethasone
Format: cell-based
readout-label: Efficacy (%)
One number for each entry, in %.

Recorded results for 3 compounds are shown here.
                                   compound  readout_label  reported_measurement
0  CC(C)C[C@@H](c1ccc2c(cnn2-c2ccc(F)cc2)c1)C(C)(C)CNC(=O)NCC(F)(F)F       Efficacy                    86
1  CC(C)(CNS(C)(=O)=O)[C@@H](c1ccccc1)c1ccc2c(cnn2-c2ccc(F)cc2)c1       Efficacy                    86
2  CCS(=O)(=O)NCC(C)[C@@H](c1ccccc1)c1ccc2c(cnn2-c2ccc(F)cc2)c1 (stereo partly drawn)       Efficacy                    96

Okay, here is my list. What is Efficacy for each of these?
1. CC(C)(CNC(=O)NCC(F)(F)F)[C@@H](c1ccccc1)c1ccc2c(cnn2-c2ccc(F)cc2)c1
2. CC(CNC(=O)CC(F)(F)F)[C@@H](c1ccccc1)c1ccc2c(cnn2-c2ccc(F)cc2)c1 (single isomer, unassigned)
3. CC(C)(CNS(=O)(=O)C1CC1)[C@@H](c1ccccc1)c1ccc2c(cnn2-c2ccc(F)cc2)c1

A)
[66, 84, 76]

Okay, here is my list. What is Efficacy for each of these?
1. CC(CNS(C)(=O)=O)[C@@H](c1ccccc1)c1ccc2c(cnn2-c2ccc(F)cc2)c1 (stereo partly drawn)
2. CC(C)(C)NC(=O)NCC(C)(C)[C@@H](c1ccccc1)c1ccc2c(cnn2-c2ccc(F)cc2)c1

A)
1. 100
2. 74

----------
Field: Efficacy. Provide a value for each of the compounds that follow.
Molecular target: Glucocorticoid receptor (Homo sapiens) (UniProt P04150)
Experiment: Transrepression activity at glucocorticoid receptor in human A549 cells assessed as inhibition of IL1beta-stimulated NFkappaB-dependent E-selectin transcription by luciferase reporter gene assay relative to dexamethasone
Assay type: cell-based
Give bare numbers, in %.

Recorded results for 2 compounds are shown here.
                                   compound  reported_measurement
0  CC(C)(C)CC(=O)NCC(C)(C)[C@@H](c1ccccc1)c1ccc2c(cnn2-c2ccc(F)cc2)c1                    46
1  CC(C)C[C@@H](c1ccc2c(cnn2-c2ccc(F)cc2)c1)C(C)(C)CNC(=O)NC(C)(C)C                    94

Okay, here is my list. What is Efficacy for each of these?
1. CC(C)(CNC(=O)NCC(F)(F)F)[C@@H](c1ccccc1)c1ccc2c(cnn2-c2ccc(F)cc2)c1
2. CC(C)(CNS(C)(=O)=O)[C@@H](c1ccccc1)c1ccc2c(cnn2-c2ccc(F)cc2)c1
3. CC(CNS(=O)(=O)CC(F)(F)F)[C@@H](c1ccccc1)c1ccc2c(cnn2-c2ccc(F)cc2)c1 (stereo partly drawn)

A)
55
97
105

Okay, here is my list. What is Efficacy for each of these?
1. CCCS(=O)(=O)NCC(C)(C)[C@@H](c1ccccc1)c1ccc2c(cnn2-c2ccc(F)cc2)c1
2. CC(C)(CNC(=O)CC(F)(F)F)[C@@H](c1ccccc1)c1ccc2c(cnn2-c2ccc(F)cc2)c1

A)
1. 63
2. 90

Values were extracted from ChEMBL document CHEMBL2424625.
